- tgt: Potassium channel subfamily K member 9 (Homo sapiens)
- assay.procedure: blockers of human TASK-3 (KCNK9) channel – HEK293 cells, thallium flux, primary screen (AID 488922)
- conditions: HEK293 KCNK9, FluxOR thallium flux fluorescence, at 10 µM
Among all 310,000 compounds or so, about 3,800 (1.2%) were called active.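 Rule for the calls: active = ratio B-score over 3 SD below the library mean, with starting fluorescence within 5 SD of its mean; inactive = the rest, inconclusive results apart.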 What follows is part of a selection rich in actives, with near analogues and random picks from the rest.
Response enum: True = active, False = inactive

In [3]: df
Out[3]:
                                 molecule  category
0  Cc1ccc(C)c(Cn2cnc3c(oc4ccccc43)c2=O)c1     False

*Q* Check the results log: what was the call for `Oc1ccccc1CN1CCN(C(c2ccccc2)c2ccccc2)CC1` ?
*A* False

*Q* Check the results log: what was the call for `Cc1noc(C)c1/C=N/Nc1ccc2ccccc2n1` ?
*A* False

*Q* Check the results log: what was the call for `COc1cccc(-c2cc3nc4c(c(N5CCC6(CC5)OCCO6)n3n2)CCCC4)c1` ?
*A* True

*Q* Check the results log: what was the call for `COc1cccc(CNc2nc3nc4c(c(=O)n3[nH]2)CCC4)c1` ?
*A* False

*Q* Check the results log: what was the call for `COc1cccc(NC(=O)CN2CCN(c3nc(-c4cccc(OC)c4)cs3)CC2)c1` ?
*A* False

*Q* Check the results log: what was the call for CC1=C(C(=O)OC(C)(C)C)C(c2ccc(Br)cc2)NC(=O)N1CCCC(=O)O (stereo not drawn) ?
*A* False

*Q* Check the results log: what was the call for `c1ccc(C(c2ccccc2)N2CCN(Cc3nnnn3C3CCCCC3)CC2)cc1` ?
*A* True

*Q* Check the results log: what was the call for `CN(C)S(=O)(=O)c1cccc(NC(=O)COC(=O)C2(c3ccccc3F)CCCC2)c1` ?
*A* False

###

- tgt: Potassium channel subfamily K member 9 (Homo sapiens)
- assay.procedure: blockers of human TASK-3 (KCNK9) channel – HEK293 cells, thallium flux, primary screen (AID 488922);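 for B-score: negative B-score means less thallium flux so channel inhibition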
- conditions: HEK293 KCNK9, FluxOR thallium flux fluorescence, at 10 µM; stronger effect = lower value
Among all 310,000 compounds or so, about 3,800 (1.2%) were called active. This is one part of a sample in which actives are shown more often than they occur.
experimental.endpoint: B-score

Example results:
                                   compound          result
0  O=C(CCC1CCCC1)N=C1SC2CS(=O)(=O)CC2N1Cc1ccccc1 (stereo not given)        inactive
1  CCCN1C(=O)C(Cc2nc3ccccc3c(=O)n2-c2ccccc2)c2cc(C)ccc21 (stereo not given)  -9.54 (active)
2  CCCc1nc2c(c(=O)c3ccccc3n2C)c(=O)n1-c1cc(C)cc(C)c1        inactive
3    O=C(Nc1c2c(nc3ccccc13)CCCC2)c1ccccc1Br        inactive

*Q* Provide B-score, system Potassium channel subfamily K member 9 (Homo sapiens), entry `CCCc1nc2ccccc2c(=O)n1/N=C/c1ccc(O)c(O)c1`
*A* inactive

###

- tgt: Potassium channel subfamily K member 9 (Homo sapiens) (UniProt Q9NPC2)
- Sequence (Q9NPC2 whole entry, looked up): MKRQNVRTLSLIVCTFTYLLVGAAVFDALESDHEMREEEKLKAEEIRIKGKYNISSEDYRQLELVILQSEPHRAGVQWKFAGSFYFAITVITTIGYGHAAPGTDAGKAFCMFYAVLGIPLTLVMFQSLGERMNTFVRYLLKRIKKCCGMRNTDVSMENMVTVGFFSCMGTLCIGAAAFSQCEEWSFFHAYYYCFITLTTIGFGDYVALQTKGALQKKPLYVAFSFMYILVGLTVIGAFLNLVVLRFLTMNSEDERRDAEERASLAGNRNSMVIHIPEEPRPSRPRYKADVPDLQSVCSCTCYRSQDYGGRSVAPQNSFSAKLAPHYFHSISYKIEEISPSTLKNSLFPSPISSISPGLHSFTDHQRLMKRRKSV
- assay.procedure: blockers of human TASK-3 (KCNK9) channel – HEK293 cells, thallium flux, primary screen (AID 488922);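 for B-score: negative B-score means less thallium flux so channel inhibition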
- conditions: HEK293 KCNK9, FluxOR thallium flux fluorescence, at 10 µM; stronger effect = lower value
About 3,800 (1.2%) of roughly 310,000 compounds were called active. Only a selection was taken, and actives are over-represented in it overall.
experimental.endpoint: B-score

Example results:
In [3]: df
Out[3]:
                                   molecule    result
0  COc1ccc(/C=N/NC(=O)c2ccc3c(c2)OCCO3)c(OC)c1  inactive
1  COc1ccccc1C(=O)OCC(=O)NCCNC(=O)COC(=O)c1ccccc1OC  inactive
2  COc1ccc(C(=O)CSc2nc(C)cc(C)n2)cc1[N+](=O)[O-]  inactive
3  CCC(c1nnnn1Cc1ccco1)N(Cc1cc2cc(OC)ccc2[nH]c1=O)C1CCCCC1 (centres undefined)  inactive
4  CCOC(=O)c1sc(=NC(=O)c2ccc(Br)cc2)n(C)c1C  inactive

*Q* Supply B-score value. Item: COc1cccc(NC(=O)N2CCCC2C(=O)NC2CCCCC2)c1 (centres undefined)
*A* inactive

*Q* Supply B-score value. Item: `O=C(COC(=O)c1ccccc1SCC(=O)NC1CCCCC1)NC1CCCCC1`
*A* inactive

*Q* Supply B-score value. Item: Cc1cc(Cl)ccc1C(=O)C1CCCN(C(=O)CCN2CCCO2)C1 (centres undefined)
*A* inactive

###

- tgt: Potassium channel subfamily K member 9 (Homo sapiens)
- assay.procedure: blockers of human TASK-3 (KCNK9) channel – HEK293 cells, thallium flux, primary screen (AID 488922)
- conditions: HEK293 KCNK9, FluxOR thallium flux fluorescence, at 10 µM
Screen size: about 310,000 compounds; about 3,800 (1.2%) were called active.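 How the source made its calls: active means ratio B-score over 3 SD below the library mean, with starting fluorescence within 5 SD of its mean; inactive means the rest, inconclusive results apart.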 The sample holds actives, similar compounds and a random draw of the others, so the mix is not that of the screen.
Response enum: active, inactive

*Q* Check the results log: what was the call for `COc1cc(C(=O)Nc2oc(-c3ccccc3)c(-c3ccccc3)c2C#N)cc(OC)c1OC` ?
*A* active

*Q* Check the results log: what was the call for `CN(c1ccc(OCC(=O)O)cc1)S(=O)(=O)c1ccc2ccccc2c1` ?
*A* inactive

###

- tgt: Potassium channel subfamily K member 9 (Homo sapiens)
- assay.procedure: blockers of human TASK-3 (KCNK9) channel – HEK293 cells, thallium flux, primary screen (AID 488922)
- conditions: HEK293 KCNK9, FluxOR thallium flux fluorescence, at 10 µM
Hit rate of the full screen: of about 310,000 compounds, about 3,800 (1.2%) were called active.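 Rule for the calls: active = ratio B-score over 3 SD below the library mean, with starting fluorescence within 5 SD of its mean; inactive = the rest, inconclusive results apart.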 Shown is part of a subset that was picked to be rich in actives.
Response enum: active, inactive

Use the examples below as a reference point.
In [3]: df
Out[3]:
                                   compound                                       tgt  category
0  COc1ccc2occ(C(=O)c3ccc(N=C(C)N(C)C)cc3)c2c1  Potassium channel subfamily K member 9 (Homo sapiens)  inactive
1  CC(C)C(=O)Nc1cccc(NC(=S)NC(=O)C(c2ccccc2)c2ccccc2)c1  Potassium channel subfamily K member 9 (Homo sapiens)    active
2  CC(C)CN(C(=O)COC(=O)c1ccc2ccccc2c1)c1c(N)n(Cc2ccccc2)c(=O)[nH]c1=O  Potassium channel subfamily K member 9 (Homo sapiens)  inactive
3                  COCCNc1ncnc2c1nc1n2CCCC1  Potassium channel subfamily K member 9 (Homo sapiens)  inactive
4  CCN(CC)CC1(O)CCN(C(=O)c2ccc(Cl)c(Cl)c2)CC1  Potassium channel subfamily K member 9 (Homo sapiens)  inactive
5  COc1ccc(CN2CCC(c3nc4ccc(Cl)cc4[nH]3)CC2)cc1  Potassium channel subfamily K member 9 (Homo sapiens)  inactive

*Q* Check the results log: what was the call for `O=C(Nc1ccccc1Cl)Nc1cccc2cccnc12` ?
*A* inactive

*Q* Check the results log: what was the call for Cc1ccc(CN(C(=O)c2sc3ccccc3c2Cl)C2CCS(=O)(=O)C2)cc1 (centres undefined) ?
*A* active

*Q* Check the results log: what was the call for `COc1cccc(NC(=O)c2ccc(Cn3cc([N+](=O)[O-])cn3)o2)c1` ?
*A* inactive

*Q* Check the results log: what was the call for `Cc1ccc(-n2ncc3c(Nc4cccc(C(=O)O)c4)ncnc32)cc1` ?
*A* inactive

*Q* Check the results log: what was the call for `O=C(CCSCCc1ccccn1)Nc1nccs1` ?
*A* inactive

*Q* Check the results log: what was the call for Cc1ccccc1-n1cc(CNC(=O)CC2C(=O)NCCN2C/C=C/c2ccccc2)cn1 (centres undefined) ?
*A* inactive

*Q* Check the results log: what was the call for `CCCCCCCCCCOC(=O)Cn1c(COc2cccc(OC)c2)[n+](C)c2ccccc21` ?
*A* active

###

- tgt: Potassium channel subfamily K member 9 (Homo sapiens) (UniProt Q9NPC2)
- assay.procedure: blockers of human TASK-3 (KCNK9) channel – HEK293 cells, thallium flux, primary screen (AID 488922)
- conditions: HEK293 KCNK9, FluxOR thallium flux fluorescence, at 10 µM
Out of some 310,000 compounds screened, about 3,800 (1.2%) were called active.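 How the source made its calls: active means ratio B-score over 3 SD below the library mean, with starting fluorescence within 5 SD of its mean; inactive means the rest, inconclusive results apart.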 Only a selection was taken, and actives are over-represented in it overall.
Response enum: active, inactive

Use the examples below as a reference point.
>>> print(df.to_string())
                                   compound  category
0      CN(CC(=O)Nc1cccc(F)c1)C(=O)C1=COCCO1  inactive
1  CSc1cccc(NC(=S)N(C(C)C)C(C)c2ccccn2)c1 (stereo not drawn)    active
2  COc1ccccc1NC(=O)CSc1nc2sc(C)c(C)c2c(=O)n1Cc1ccco1    active
3        COc1ccc(C(=O)/C=C/c2cccnc2)c(OC)c1  inactive
4            Cc1ccc(NC(=O)c2cc3ccccc3o2)cc1  inactive
5  COc1ccc2c(c1)C(c1cccs1)=NNC(c1cccnc1)=N2    active
6  COCCCn1c(SCC(=O)Nc2oc(C)c3c(C)n[nH]c(=O)c23)nc2sc3c(c2c1=O)CCC3  inactive
7       S=c1nc2ccccc2c2nc(-c3cccnc3)[nH]n12  inactive
8  Cc1onc(-c2ccccc2Cl)c1C(=O)N(Cc1ccc(N(C)C)cc1)C(C)C  inactive
9  COc1ccccc1N1CCN(Cc2cc(OC)c3c(c2)OCO3)CC1  inactive

*Q* Check the results log: what was the call for CCC1Nc2ncnc(N3CCN(c4ccccc4)CC3)c2N(Cc2ccc(Cl)cc2)C1=O (stereo not drawn) ?
*A* inactive

*Q* Check the results log: what was the call for `CCOC(=O)c1cc2sccc2n1Cc1ccc(C#N)cc1` ?
*A* active

*Q* Check the results log: what was the call for `O=C(Cc1ccccc1)NCc1ccc(F)cc1` ?
*A* inactive

*Q* Check the results log: what was the call for `O=C(c1cc2sccc2n1Cc1ccc(F)cc1)N1CCc2ccccc21` ?
*A* inactive

*Q* Check the results log: what was the call for `O=C(N/N=C/c1c[nH]c2ccccc12)c1cc2ccccc2o1` ?
*A* inactive

*Q* Check the results log: what was the call for `O=C(CNC(=O)c1ccc(F)cc1)c1ccccc1` ?
*A* inactive
